tested.target: PAD4 (Homo sapiens)
procedure.details: Inhibition assays with compound 1 (mode of inhibition, BAEE substrate)
Type: biochemical
condition.details: 0, 5, 10 mM compound 1, read-out: Kis (linear competitive inhibition)
experimental.endpoint: Ki

**Q:** Note down Ki recorded for CC(=N)NCCC[C@H](NC(=O)c1ccccc1)C(=O)O
**A:** 1700 µM

---

tested.target: PAD4 (Homo sapiens, UniProt Q9UM07)
Sequence (Q9UM07 whole entry): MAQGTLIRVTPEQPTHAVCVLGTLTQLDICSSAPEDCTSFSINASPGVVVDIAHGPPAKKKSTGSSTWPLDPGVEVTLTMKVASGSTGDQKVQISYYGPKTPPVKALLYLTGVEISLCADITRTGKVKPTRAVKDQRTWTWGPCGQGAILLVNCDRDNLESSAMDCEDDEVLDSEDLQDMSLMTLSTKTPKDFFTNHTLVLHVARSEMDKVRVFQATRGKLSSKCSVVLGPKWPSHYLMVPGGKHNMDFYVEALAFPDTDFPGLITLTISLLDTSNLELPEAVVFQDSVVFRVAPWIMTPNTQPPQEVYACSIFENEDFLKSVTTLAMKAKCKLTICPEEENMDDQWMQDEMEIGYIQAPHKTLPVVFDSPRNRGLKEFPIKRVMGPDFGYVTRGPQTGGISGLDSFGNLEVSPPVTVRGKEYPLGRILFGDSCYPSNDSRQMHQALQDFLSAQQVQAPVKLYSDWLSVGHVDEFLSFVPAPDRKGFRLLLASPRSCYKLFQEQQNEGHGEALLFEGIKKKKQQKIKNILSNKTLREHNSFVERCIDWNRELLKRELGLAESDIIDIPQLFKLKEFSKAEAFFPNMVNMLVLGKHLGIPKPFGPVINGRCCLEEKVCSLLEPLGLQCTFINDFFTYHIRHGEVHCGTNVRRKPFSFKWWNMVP
procedure.details: IC50 assays (Example 2)
Format: biochemical
condition.details: preincubation with PAD4 in 10 mM calcium for 15 min; 10 mM BAEE; read-out: IC50
Reported IC50 values follow for various molecules

Below: 5 molecules and their reported IC50.
[[record]]
molecule = "N=C(CCl)NCCCC[C@H](NC(=O)c1ccccc1)C(N)=O"
experimental_endpoint = "IC50"
value_reported = "640 µM"

[[record]]
molecule = "NC(=O)[C@H](CCCNC(=O)CCl)NC(=O)c1ccccc1 [Cl3-acetamide]"
experimental_endpoint = "IC50"
value_reported = "> 500 µM"

[[record]]
molecule = "CC(=N)NCCCC[C@H](NC(=O)c1ccccc1)C(N)=O"
experimental_endpoint = "IC50"
value_reported = "> 1000 µM"

[[record]]
molecule = "N=C(CF)NCC[C@H](NC(=O)c1ccccc1)C(N)=O"
experimental_endpoint = "IC50"
value_reported = "> 1000 µM"

[[record]]
molecule = "CC(=N)NCCC[C@H](NC(=O)c1ccccc1)C(N)=O"
experimental_endpoint = "IC50"
value_reported = "> 1000 µM"


**Q:** Note down IC50 recorded for N=C(CF)NCCCC[C@H](NC(=O)c1ccccc1)C(N)=O
**A:** 655 µM

**Q:** Note down IC50 recorded for N=C(CCl)NCC[C@H](NC(=O)c1ccccc1)C(N)=O
**A:** 585 µM

**Q:** Note down IC50 recorded for CC(=N)NCC[C@H](NC(=O)c1ccccc1)C(N)=O
**A:** > 1000 µM

---

tested.target: PAD4 (Homo sapiens, UniProt Q9UM07)
procedure.details: H3-amidine inhibition assays
Format: biochemical
condition.details: BAEE substrate; 0, 5, 10 mM H3-amidine; read-out: Kis (linear competitive inhibition)
experimental.endpoint: Ki (mM)
# number only, unit mM dropped from output

**Q:** Tell me its Ki on PAD4 (Homo sapiens, UniProt Q9UM07): CC(=N)NCCC[C@H](NC(=O)c1ccccc1)C(N)=O
**A:** 3.2
